Where do these numbers come from? They come from the supplement of paper PMC6555819.

For each of the sequences below, state its PBM binding z-score.
System: THRa homodimer (NR concentration 90 nM)
METHOD SUMMARY: PBM binding z-score (relative to random genomic background probes); higher = stronger binding; sequences stand for … in GC…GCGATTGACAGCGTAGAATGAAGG
Give bare numbers.

Sample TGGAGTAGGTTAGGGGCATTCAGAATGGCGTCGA — what was its PBM binding z-score? 1.06

Sample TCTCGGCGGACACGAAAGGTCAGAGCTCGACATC — what was its PBM binding z-score? 0.2

Sample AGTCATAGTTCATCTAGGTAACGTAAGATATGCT — what was its PBM binding z-score? 0.0435

Here is another sequence to look at.
Sample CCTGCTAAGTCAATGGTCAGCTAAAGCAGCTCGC — what was its PBM binding z-score? -0.724

###

Test system: RARg homodimer (NR concentration 270 nM)
METHOD SUMMARY: PBM binding z-score (relative to random genomic background probes); higher = stronger binding; sequences stand for … in GC…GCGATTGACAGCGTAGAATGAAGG
For each of the sequences below, state its PBM binding z-score.
One number for each entry.

Sample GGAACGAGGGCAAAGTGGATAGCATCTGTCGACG — what was its PBM binding z-score? 1.53

# batch size: 2; output PBM binding z-score per entry
1. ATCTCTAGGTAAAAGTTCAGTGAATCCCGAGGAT
2. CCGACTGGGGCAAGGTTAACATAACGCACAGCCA

1: 2.06; 2: 1.3

###

System: LXRa:RXRa (NR concentration 270 nM, RXRa partner concentration 90 nM)
METHOD SUMMARY: PBM binding z-score (relative to random genomic background probes); higher = stronger binding; sequences stand for … in GC…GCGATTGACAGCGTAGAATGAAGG
READOUT KIND: PBM binding z-score
Give bare numbers.

A selection of reference data follows.
Sample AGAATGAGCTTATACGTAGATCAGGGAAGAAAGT — what was its PBM binding z-score? -0.491

Sample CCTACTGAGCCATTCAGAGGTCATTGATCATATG — what was its PBM binding z-score? 4.67

Sample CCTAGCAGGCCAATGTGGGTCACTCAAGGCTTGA — what was its PBM binding z-score? 1.67

Here is another sequence to look at.
Sample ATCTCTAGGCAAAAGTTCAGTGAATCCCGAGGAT — what was its PBM binding z-score? 0.757

###

For each of the sequences below, state its PBM binding z-score.
System: PPARg:RXRa (NR concentration 180 nM, RXRa partner concentration 90 nM)
METHOD SUMMARY: PBM binding z-score (relative to random genomic background probes); higher = stronger binding; sequences stand for … in GC…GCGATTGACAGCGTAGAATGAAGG
Give bare numbers.

A selection of reference data follows.
Sample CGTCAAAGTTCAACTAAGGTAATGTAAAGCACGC — what was its PBM binding z-score? 5

Sample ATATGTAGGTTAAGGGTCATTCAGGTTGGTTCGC — what was its PBM binding z-score? 11.5

Sample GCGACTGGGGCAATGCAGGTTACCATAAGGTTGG — what was its PBM binding z-score? 1.65

Here is another sequence to look at.
Sample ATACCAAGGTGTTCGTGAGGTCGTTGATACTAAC — what was its PBM binding z-score? 0.117
